Hello, the source for this data is patent US6908919B2, in case you need it.

Exercise: for every item that follows, state its recorded inhibition at 100 µM.
biological target: Human thrombin (Homo sapiens); test: biochemical; conditions: read-out: % Inhibition Thrombin II at 100 μM
Put down the number, then write its unit next to it.

N/N=C(/N)c1ccc(CNC(=O)Cn2c(-c3cccc(N)c3)c(Cl)nc(NC3CCC3)c2=O)cc1 [Example 148]: 4%
N=C(N)c1ccc(Cc2cccc(-n3c(-c4cccc(N)c4)c(Cl)nc(NC4CCC4)c3=O)c2)cc1 [Example 138]: 39%
CC(C)Nc1nc(Cl)c(-c2cc(N)cc(C(=O)NCc3cccc(C(F)(F)F)c3)c2)n(CC(=O)NCc2ccc(C(=N)N)cc2)c1=O [Example 128-13]: 36%
CC(C)Nc1nc(Cl)c(-c2cc(N)cc(C(=O)NCc3ccccn3)c2)n(CC(=O)NCc2ccc(C(=N)N)cc2)c1=O [Example 128-19]: 37%
CC(C)Nc1nc(Cl)c(-c2cc(N)cc(C(=O)NCc3cc(C(F)(F)F)cc(C(F)(F)F)c3)c2)n(CC(=O)NCc2ccc(C(=N)N)cc2)c1=O [Example 128-6]: 40%

// each listed molecule needs a value for inhibition at 100 µM
1. CC(C)Nc1nc(Cl)c(-c2cc(N)cc(C(=O)NCc3cccc(F)c3)c2)n(CC(=O)NCc2ccc(C(=N)N)cc2)c1=O [Example 128-12]
2. N=C(N)c1ccc(NC(=O)Cn2c(-c3cccc(N)c3)c(Cl)nc(NC3CCC3)c2=O)cc1 [Example 141]

Key:
1. 47%
2. 11%

---

target: Human factor Xa (Homo sapiens, UniProt P00742); assay: Xa Assay; type: biochemical; parameters: purchased Enzyme Research Laboratories, South Bend Ind; settings: at 30 µM inhibitor
Sequence (P00742 41-179 limits assumed): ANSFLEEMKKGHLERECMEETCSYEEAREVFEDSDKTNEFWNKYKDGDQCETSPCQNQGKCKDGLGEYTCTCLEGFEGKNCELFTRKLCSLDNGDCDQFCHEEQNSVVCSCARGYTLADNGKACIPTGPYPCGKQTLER
Sequence (P00742 235-488 limits assumed): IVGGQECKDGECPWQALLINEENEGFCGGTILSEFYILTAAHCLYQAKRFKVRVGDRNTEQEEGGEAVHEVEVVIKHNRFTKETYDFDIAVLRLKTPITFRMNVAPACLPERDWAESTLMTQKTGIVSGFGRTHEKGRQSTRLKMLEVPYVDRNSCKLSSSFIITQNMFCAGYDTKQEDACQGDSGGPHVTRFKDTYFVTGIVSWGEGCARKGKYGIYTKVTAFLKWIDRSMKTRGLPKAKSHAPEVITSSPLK
reported_metric: % Inhibition Factor Xa (30 µM) (%)
Numbers only, in %.

For orientation, consider the following solved cases.
N=C(N)c1ccc(CNC(=O)Cn2c(-c3ccccc3)c(Cl)nc(NC3CCCCCC3)c2=O)cc1 [1507-29]: 4
N=C(N)c1ccc(CNC(=O)Cn2c(-c3ccccc3)c(Cl)nc(NCCCCc3ccccc3)c2=O)cc1: 21
N=C(N)c1ccc(CNC(=O)Cn2c(-c3ccccc3)c(Cl)nc(NCCc3cccc(C(F)(F)F)c3)c2=O)cc1: 4

Exercise: Note % Inhibition Factor Xa (30 µM) for the compound shown: CCCCC(CC)Nc1nc(Cl)c(-c2ccccc2)n(CC(=O)NCc2ccc(C(=N)N)cc2)c1=O (stereo not shown)
Key: 5

---

Exercise: for every item that follows, state its recorded inhibition at 100 µM.
molecular target: Human thrombin (Homo sapiens, UniProt P00734); assay: biochemical; settings: read-out: % Inhibition Thrombin II at 100 μM
Numbers only, in %.

CC(C)Nc1nc(Cl)c(-c2cc(N)cc(C(=O)NCc3cccnc3)c2)n(CC(=O)NCc2ccc(C(=N)N)cc2)c1=O: 21
CC(C)Nc1nc(Cl)c(-c2cc(N)cc(C(=O)NCc3ccccc3C(F)(F)F)c2)n(CC(=O)NCc2ccc(C(=N)N)cc2)c1=O: 46

Exercise: Note inhibition at 100 µM for the compound shown: N=C(N)c1ccc(CNC(=O)Cn2c(-c3cc(N)nc(C(=O)O)c3)cnc(NC3CCC3)c2=O)cc1
Key: 47

---

molecular target: recombinant soluble tissue factor and recombinant human factor VIIa (TF-VIIa) (Homo sapiens); construct: conversion of coagulation factor VII to VIIa by Xa; purchased American Diagnostica, Greenwich Conn; host or cells: VIIa purchased; soluble TF made in house in E. coli; experiment: TF-VIIa Assay; assay type: biochemical; settings: inhibitor at 100 µM
Sequence (P08709 61-212 limits assumed): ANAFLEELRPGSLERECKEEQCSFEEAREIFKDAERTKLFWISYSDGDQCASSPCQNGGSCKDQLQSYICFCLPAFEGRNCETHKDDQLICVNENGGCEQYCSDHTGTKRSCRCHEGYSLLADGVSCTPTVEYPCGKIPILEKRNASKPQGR
Sequence (P08709 213-466 limits assumed): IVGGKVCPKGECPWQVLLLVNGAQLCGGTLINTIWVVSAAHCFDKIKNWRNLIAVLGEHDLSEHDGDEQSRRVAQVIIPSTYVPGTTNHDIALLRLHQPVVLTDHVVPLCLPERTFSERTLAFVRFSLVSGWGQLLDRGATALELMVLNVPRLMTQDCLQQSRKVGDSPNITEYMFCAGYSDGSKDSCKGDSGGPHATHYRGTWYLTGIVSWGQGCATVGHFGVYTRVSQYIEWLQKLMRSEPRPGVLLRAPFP
Sequence (P13726 33-251 partner limits assumed): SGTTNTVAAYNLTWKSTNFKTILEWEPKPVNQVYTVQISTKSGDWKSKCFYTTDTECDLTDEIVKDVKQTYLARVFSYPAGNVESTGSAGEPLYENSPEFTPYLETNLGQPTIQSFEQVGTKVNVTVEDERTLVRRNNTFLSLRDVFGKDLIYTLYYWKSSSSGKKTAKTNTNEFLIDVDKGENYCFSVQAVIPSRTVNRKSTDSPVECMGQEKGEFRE
reported_metric: % Inhibition TF-VIIa (100 µM) (%)
Numbers only, in %.

For orientation, consider the following solved cases.
O=C(Cn1c(-c2ccccc2)c(Cl)nc(NCCc2ccc(Cl)cc2)c1=O)NCCc1ccncc1 [Example E-0012]: 0
O=C(Cn1c(-c2ccccc2)c(Cl)nc(NCCN2CCOCC2)c1=O)NCCc1ccncc1 [Example E-0015]: 0
O=C(Cn1c(-c2ccc3c(c2)OCO3)c(Cl)nc(NCCc2ccncc2)c1=O)NCCc1ccncc1 [Example E-0046]: 0
O=C(Cn1c(-c2ccc3c(c2)OCO3)c(Cl)nc(NCCN2CCOCC2)c1=O)NCCc1ccncc1 [Example E-0047]: 0
COc1ccc(-c2c(Cl)nc(NCc3ccncc3)c(=O)n2CC(=O)NCCc2ccncc2)cc1 [Example E-0040]: 0
Cc1c(Cl)nc(NCc2ccncc2)c(=O)n1CC(=O)NCCc1ccncc1 [Example E-0008]: 0
O=C(Cn1c(CCc2ccccc2)c(Cl)nc(NCCc2ccncc2)c1=O)NCCc1ccncc1 [Example E-0070]: 0
O=C(Cn1c(CCc2ccccc2)c(Cl)nc(NCCN2CCOCC2)c1=O)NCCc1ccncc1 [Example E-0071]: 0
O=C(Cn1c(CCc2ccccc2)c(Cl)nc(NCc2ccncc2)c1=O)NCCc1ccncc1 [Example E-0072]: 0
COc1ccc(-c2c(Cl)nc(NCCc3ccc(Cl)cc3)c(=O)n2CC(=O)NCCc2ccncc2)cc1 [Example E-0106]: 5

// each listed molecule needs a value for % Inhibition TF-VIIa (100 µM)
1. O=C(Cn1c(-c2ccc3c(c2)OCO3)c(Cl)nc(NCCc2cccnc2)c1=O)NCCc1ccncc1 [Example E-0045]
2. O=C(Cn1c(-c2cccc(Cl)c2)c(Cl)nc(NCCc2cccc(Cl)c2)c1=O)NCCc1ccncc1 [Example E-0091]
3. O=C(Cn1c(-c2ccccc2)c(Cl)nc(NCc2ccccc2)c1=O)NCCc1ccncc1 [Example E-0009]
4. COc1ccc(-c2c(Cl)nc(NCCc3ccc(Cl)cc3)c(=O)n2CC(=O)NCCc2ccncc2)cc1 [Example E-0036]
5. O=C(Cn1c(-c2ccc(Cl)cc2)c(Cl)nc(NCc2ccncc2)c1=O)NCCc1ccncc1 [Example E-0032]
6. O=C(Cn1c(-c2cccc(Cl)c2)c(Cl)nc(NCCc2cccc(Cl)c2)c1=O)NCCc1cccnc1 [Example E-0080]
7. O=C(Cn1c(-c2ccc(Cl)cc2)c(Cl)nc(NCCc2cccnc2)c1=O)NCCc1ccncc1 [Example E-0021]

Key:
1. 0
2. 1
3. 0
4. 0
5. 0
6. 1
7. 0
